# system-tested: T1, DcR3 (UniProt O95407 30-300, limits assumed)
# T1 construct: the construct is not described; also called decoy receptor DcR3; TNFRSF6B
# T1 sequence (looked up): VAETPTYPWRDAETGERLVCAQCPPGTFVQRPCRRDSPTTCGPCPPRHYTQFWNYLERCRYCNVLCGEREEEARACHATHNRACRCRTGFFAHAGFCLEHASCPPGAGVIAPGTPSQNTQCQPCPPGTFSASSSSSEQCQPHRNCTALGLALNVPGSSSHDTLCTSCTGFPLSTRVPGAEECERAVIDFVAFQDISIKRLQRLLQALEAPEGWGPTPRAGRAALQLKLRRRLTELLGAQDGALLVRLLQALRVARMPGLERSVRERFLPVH
# protocol-details: ELISA, DcR3
Collected EC50 values appear next to each entry.
Express it in nM; write the number only.

{"columns": ["binder", "unit-label", "meas-value"],
 "data": [
  ["TL1W133 (His-TEV-TL1A T239F) (ligand, also called TL1W133 (T239F)) HHHHHHENLYFQGLKGQEFAPSHQQVYAPLRADGDKPRAHLTVVRQTPTQHFKNQFPALHWEHELGLAFTKNRMNYTNKFLLIPESGDYFIYSQVTFRGMTSECSEIRQAGRPNKPDSITVVITKVTDSYPEPTQLLMGTKSVCEVGSNWFQPIYLGAMFSLQEGDKLMVNVSDISLVDYFKEDKTFFGAFLL", "nM", 10.8],
  ["TL1W125 (His-TEV-TL1A N207E) (ligand, also called TL1W125 (N207E)) HHHHHHENLYFQGLKGQEFAPSHQQVYAPLRADGDKPRAHLTVVRQTPTQHFKNQFPALHWEHELGLAFTKNRMNYTNKFLLIPESGDYFIYSQVTFRGMTSECSEIRQAGRPNKPDSITVVITKVTDSYPEPTQLLMGTKSVCEVGSEWFQPIYLGAMFSLQEGDKLMVNVSDISLVDYTKEDKTFFGAFLL", "nM", 9.8]
]}

Here's the next entry for you.
Task: Dear colleague, please send me the reported EC50 for TL1W95 (His-TEV-TL1A Q167A) (ligand, also called TL1W95 (Q167A)) HHHHHHENLYFQGLKGQEFAPSHQQVYAPLRADGDKPRAHLTVVRQTPTQHFKNQFPALHWEHELGLAFTKNRMNYTNKFLLIPESGDYFIYSQVTFRGMTSECSEIRAAGRPNKPDSITVVITKVTDSYPEPTQLLMGTKSVCEVGSNWFQPIYLGAMFSLQEGDKLMVNVSDISLVDYTKEDKTFFGAFLL when you can.
Result: 32
